# Test system: Aedes aegypti mosquitoes
# Assay Method Text: Mosquito repellency on skin (olfactometer, human forearm)
# Type: in vivo
# Condition Details: on skin, 0.3 mg/cm^2, 4 h after application
Reported Metric: Percent Repellency 4 h

CCCCCCCCCC(=O)O	73 (1) %
CCCCCC=CC(=O)O	27 (1) %

For the record `CCCCCCCCC(=O)O` , what value of Percent Repellency 4 h is listed for Aedes aegypti mosquitoes?
47 (1) %
